Origin of values: PubChem BioAssay (NCI)

assay: NCI Yeast Anticancer Drug Screen. Data for the sgs1 mgt1 strain (AID 161);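 note: 0% = growth of cultures given vehicle only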; conditions: S. cerevisiae sgs1 mgt1 strain, at 5.0 µM (retest, dose inferred, filed as 0.5), stronger effect = higher value
The panel holds about 79,000 compounds, 15% with a hit somewhere; the sample as a whole holds those more often.
reported-endpoint: growth inhibition (%)
Give just the numeric value; % need not be written.

### Prompt Dear colleague, I am looking for the recorded growth inhibition of the following molecule: OC(c1cc2c(c3ccccc13)CCCC2)C1CCCCN1 (stereo not given)
### Response 3

### Prompt Dear colleague, I am looking for the recorded growth inhibition of the following molecule: CCC[CH2][Sn]1([CH2]CCC)[O]C(=O)c2cc(C)ccc2[O]1
### Response 86

### Prompt Dear colleague, I am looking for the recorded growth inhibition of the following molecule: NCCBr
### Response -3

### Prompt Dear colleague, I am looking for the recorded growth inhibition of the following molecule: O=C(O)C1C2C=CC(C2)C1c1ccccc1 (stereo not given)
### Response -3

### Prompt Dear colleague, I am looking for the recorded growth inhibition of the following molecule: CCCCCCCCCCCCNCCc1ccccc1
### Response 99

### Prompt Dear colleague, I am looking for the recorded growth inhibition of the following molecule: Cc1ccc(S(=O)(=O)OC2CCC3C4CC=C5CC(SC(=N)N)CCC5(C)C4CCC23C)cc1 (stereo not given)
### Response 96

### Prompt Dear colleague, I am looking for the recorded growth inhibition of the following molecule: COc1cc(C[C@H]2c3cc(OC)c(OC)c(O)c3CCN2C)c(Oc2cc3c(cc2OC)-c2c(OC)c(OC)c(OC)c4c2C(C3)N(C)CC4)cc1OC (stereo not given in full) (tested in a mixture with another compound)
### Response -6

### Prompt Dear colleague, I am looking for the recorded growth inhibition of the following molecule: CN(C)c1ccc(/C=C/c2cc[n+]3ccsc3n2)cc1
### Response -10

### Prompt Dear colleague, I am looking for the recorded growth inhibition of the following molecule: C[N+](C)=C1C=CC(=C2C=CSC=C2)C=C1
### Response 20

### Prompt Dear colleague, I am looking for the recorded growth inhibition of the following molecule: C[n+]1ccccc1-c1nc(-c2cccc[n+]2C)nc(-c2cccc[n+]2C)n1
### Response 23

###

test: NCI Yeast Anticancer Drug Screen. Data for the CLN2oe strain (AID 163);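 note: 0% = growth of vehicle-only control cultures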; details: S. cerevisiae CLN2oe strain, at 11.0 µM
The panel holds about 79,000 compounds, 15% with a hit somewhere; the sample as a whole holds those more often. The source made the active and inactive calls. No stated cut-off is given here; in the data, active means growth inhibition above about 70%; inactive means the rest.
Allowed answers: y for active, n for inactive

### Prompt Answer briefly: the call reported for CNCC(O)c1ccc(O)c(O)c1.[Pt].c1ccc([PH+](c2ccccc2)c2ccccc2)cc1.c1ccc([PH+](c2ccccc2)c2ccccc2)cc1 in this assay.
### Response n

### Prompt Answer briefly: the call reported for CO[C@H](/C(C)=C/C=C/C(C)=C/c1coc(C)n1)[C@H](C)[C@H]1C[C@@H](O)[C@@]2(C)O[C@H]2/C=C/[C@@H](C)[C@@H]2C[C@@H](CC(=O)O2)C[C@H]2O[C@@H]2C(=O)O1 in this assay.
### Response n

### Prompt Answer briefly: the call reported for C[C@]12CCC(=O)C=C1CC[C@@H]1C2CC[C@@]2(C)C1CC[C@@H]2OC(=O)C12OC1CCC2=O (some centres not stated) in this assay.
### Response n

### Prompt Answer briefly: the call reported for C=C[C@H]1CN2CC[C@H]1C[C@@H]2[C@@H](O)c1ccnc2ccccc12 in this assay.
### Response n

### Prompt Answer briefly: the call reported for O=C1C2CC(Cl)C(SSC3CC4C(=O)N(SC(Cl)(Cl)C(Cl)Cl)C(=O)C4CC3Cl)CC2C(=O)N1SC(Cl)(Cl)C(Cl)Cl (configuration not stated) in this assay.
### Response y

### Prompt Answer briefly: the call reported for C[C@]12CCC3[C@@H](CC[C@@H]4c5nonc5CC[C@]34C)C1CCC2=O (some centres not stated) in this assay.
### Response n

### Prompt Answer briefly: the call reported for CCCCCCCCCCCCCCCCP(=O)(O)OCC(N)C(=O)O (configuration not stated) in this assay.
### Response n
